- tgt: T1, peptide DVFPSYTCTCLKGY (SEQ ID NO:85), N-terminally biotinylated (human, cysteine pairing not given here)
- T1 construct: Human lactadherin 14-mer with part of the RGD domain at the N-terminus
- T1 peptide: Biotin-DVFPSYTCTCLKGY
- assay protocol: ELISA, biotin-peptide on neutravidin plate, antibody 1 ug/ml
Ends that are not written are not given here. * marks the point of attachment. Biotin = O=C1N[C@H]2[C@H](CS[C@H]2CCCCC(=O)*)N1
Can you tell me absorbance 450 nm minus 540 nm for the items I'm about to list?
Write the number in absorbance without appending the unit.

Query: Supply reported absorbance 450 nm minus 540 nm belonging to this binder: huMc3 antibody (antibody, V domains shown) VH: EVQLVQSGAEVKKPGASVKVSCKASGYSFTGYTMHWVKQSPGMNLEWIGLINPYNGGTVYNQKFQDKATLTVDKSTSTAYMELSSLRSEDTAVYFCARRWRYTMDYWGQGTLVTVSS VL: DIVMTQSPDSLAVSLGERATITCKASQDVSIGVAWYQQKPGQSPKLLIYSASSRYTGVPDRFSGSGSGTDFTLTISSLQAEDVAVYYCQQHYTSPFTFGSGTKVEIK
Reply: 0.09

Query: Assign absorbance 450 nm minus 540 nm to the following record: anti-lactadherin antibody 346B6 (antibody, IgG1, V domains shown, VH identical to that of 311A7; also called hybridoma 346B6; LMBP 9490CB) VH: EFQLQQSGPELVKPGASVRISCKASGYSFTDYNMNWVKQSDGKTLEWIGVINPDYGTTNNNQRFRGKATLTLDLSSSTAYMQLNSLTSEDSAVYYCARGGDYGAGYALDYWGQGTSVTVSS VL: QIVLTQSPAIMSASPGEKVTMTCSASSSVSYMYWYQQKPGSSPRLLIYDTSNLASGVPVRFSGSGSGTSYSLTISRMEAEDAATYYCQQWSSYPPTFGAGTKLELKR
Reply: 0.03

Query: Please list absorbance 450 nm minus 540 nm recorded for the binder anti-lactadherin antibody 311A7 (antibody, IgG1, V domains shown, also called murine 311A7; hybridoma 311A7) VH: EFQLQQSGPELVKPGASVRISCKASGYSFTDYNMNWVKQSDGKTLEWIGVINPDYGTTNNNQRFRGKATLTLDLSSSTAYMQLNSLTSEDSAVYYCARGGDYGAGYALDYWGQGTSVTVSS VL: QIVLTQSPAIMSASPGEKVTITCSASSSVSYMYWFQQKPGTSPKLWIYSTSNLASGVPARFSGSGSGTSYSLTISRMEAEDAATYYCQQRSSYPRTFGGGTKLEIKR
Reply: 0.02

Query: Supply recorded absorbance 450 nm minus 540 nm for anti-lactadherin antibody 416H9 (antibody, IgG1, V domains shown, also called hybridoma 416H9; LMBP 9492CB) VH: QVTLKESGPGVLQSSQTLSLTCSFSGFSLSTSGLGVIWIRQPSGAGLEWLAQIYWDDNKRYNPSLKSRLTISKDTSRNQVFLKITPVDTADTATYYCARRTFYDYDEGFYAMDYWGQGTSVTVSS VL: DIQMTQTTSSLSASLGDRVTITCRASQDISNYLNWYQQKPDGTIKLLIYYASRLHSGVPSRFSGSGSGTDYSLTISNLEQEDIATYFCQQGNTLPLTFGAGTKLELKR here.
Reply: 0.03

Query: Let me know recorded absorbance 450 nm minus 540 nm for anti-lactadherin antibody 399A12 (antibody, V domains shown, Murine monoclonal, kappa light chain; Variable regions identical to those of 416H9; also called hybridoma 399A12; LMBP 9491CB) VH: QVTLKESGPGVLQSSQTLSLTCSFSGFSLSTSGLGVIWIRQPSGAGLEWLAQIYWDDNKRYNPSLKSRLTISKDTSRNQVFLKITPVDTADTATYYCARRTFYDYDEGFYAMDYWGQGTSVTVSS VL: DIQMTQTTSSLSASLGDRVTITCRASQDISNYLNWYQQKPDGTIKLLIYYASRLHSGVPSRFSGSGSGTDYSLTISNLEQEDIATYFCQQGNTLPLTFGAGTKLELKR , thanks.
Reply: 0.04

Query: Return absorbance 450 nm minus 540 nm (reported value) for this binder: anti-lactadherin antibody 215A9 (antibody, IgG1, V domains shown, also called 2154A9; hybridoma 215A9) VH: QVSLKESGPGILQSSQTLSLTCSFSGFSLSTSGMGVSWIRQPSGKGLEWLAHIYWNDDKRYNPSLKSRLTISKDTSRDQVFLKITSVDTADTATYFCARRPRFYRDYDEGIDFWGQGTTLTVSS VL: QAVVTQESALTTSPGETVTLTCRSSTGAVTTNNYANWVQEKPDHLFTGLIGGTNNRTPGVPARFSGSLIGDKAALTITGAQTEDEAIYFCALWYSNLWVFGGGTKLTVLG
Reply: 0.04

FYI, the data here is from patent WO2013139956A1.
